TGI overview
- Test system: SF-539 CNS
- ASSAY_OVERVIEW: NCI tumour cell line growth inhibition, 48 h

Some solved entries appear below for comparison.
[[record]]
compound = "CCSC12CC3c4cccc5c4C(CN5C(=O)c4ccccc4)CC3(O1)N(C)C2=O (stereo unspecified)"
data_value = "> 100 µM"

[[record]]
compound = "CCCC(CCC)C(=O)OCC1(CO)C/C(=C\\c2ccc(C(F)(F)F)cc2)C(=O)O1 (stereo unspecified)"
data_value = "24.2 µM"

[[record]]
compound = "CCCN(CCC)C(=O)c1c(Cl)c2cccnc2n2c(C)cnc12"
data_value = "> 100 µM"

[[record]]
compound = "O=S(=O)(N/N=C/c1ccc(Cl)cc1Cl)c1ccccc1"
data_value = "> 100 µM"

[[record]]
compound = "CN(C)C(=O)Oc1ccc(C(=S)Nc2ccccc2)cc1Br"
data_value = "> 100 µM"

[[record]]
compound = "c1cc(C[S+]2CCCC2)oc1C[S+]1CCCC1"
data_value = "> 100 µM"

[[record]]
compound = "CCc1n[nH]c(=S)n1/N=C\\c1ccc(-c2ccccc2[N+](=O)[O-])o1"
data_value = "> 100 µM"

[[record]]
compound = "CN1CCCC(C(=O)OCC(=O)C2(O)CCC3C4CCC5=CC(=O)CCC5(C)C4C(O)CC32C)C1 (stereo unspecified)"
data_value = "4.38 µM"


Assay SF-539 CNS, sample CC(C)=CCc1cc(C2COc3cc4c(c(O)c3C2=O)C=CC(C)(C)O4)c(O)cc1O (stereo unspecified) , TGI read: 34.3 µM

// assay SF-539 CNS, entry `NCCC1([N+](=O)[O-])CCNCC1` , TGI value = > 100 µM

Reported TGI (SF-539 CNS) for entry O=C1OC(OC/C(Br)=C(/Br)COC2OC(=O)C(Cl)=C2Cl)C(Cl)=C1Cl (stereo unspecified) is 36.7 µM
